I'd appreciate it if you could supply pIC50 values for the items below.
# Target system: Dimer of Gag-Pol polyprotein [489-587] (Human immunodeficiency virus 1, UniProt P12497)
# Construct: 489-587
# Test details: Protease Inhibition Assay
# Method: For determination of IC50 values, HIV-1 protease was added to assay buffer containing inhibitor and the substrate (H-His-Lys-Ala-Arg-Val-Leu- (p-NO2) Phe-Glu-Ala-norleucine-Ser-NH2). The Leu- (p-NO2) Phe bond of the substrate was cleaved by the enzyme, and the substrate and products were separated by reversed-phase HPLC. Absorbance was measured at 220 nm, peak areas were determined, and percentage conversion to product was calculated.
Reminder that pIC50 is minus the log10 of a molar concentration.

Ask: Input CC(C)(C)c1ccccc1SC1C(=O)CC(CCc2ccccc2)(c2ccccc2)OC1=O (centres undefined) , output reported pIC50.
Result: 8.52

Ask: Input O=C1CC(c2ccccc2)(c2ccncc2)OC(=O)C1SCCc1ccccc1 (centres undefined) , output reported pIC50.
Result: 6.10

Ask: Input CCC(C)c1ccccc1SC1C(=O)CC(CCc2ccccc2)(c2ccccc2)OC1=O (centres undefined) , output reported pIC50.
Result: 8.00

Ask: Input Cc1ccc(C(C)C)c(SC2C(=O)CC(CCc3ccccc3)(c3ccccc3)OC2=O)c1 (centres undefined) , output reported pIC50.
Result: 8.15

Ask: Input CC(C)c1ccc(C(C)C)c(SC2C(=O)CC(c3ccccc3)(c3ccccc3)OC2=O)c1 (centres undefined) , output reported pIC50.
Result: 6.92

Ask: Input NC(=O)CCCCC1(c2ccccc2)CC(=O)C(SCCc2ccccc2)C(=O)O1 (centres undefined) , output reported pIC50.
Result: 6.47

Ask: Input O=C1CC(CCc2ccccc2)(c2ccccc2)OC(=O)C1Sc1ccccc1C1CCCCC1 (centres undefined) , output reported pIC50.
Result: 7.49

Ask: Input O=C1CC(c2ccccc2)(c2ccccc2)OC(=O)C1Sc1ccccc1C1CCCCC1 (centres undefined) , output reported pIC50.
Result: 6.90

Ask: Input CC(C)c1ccc(C(C)C)c(SC2C(=O)CC(CCc3ccccc3)(c3ccccc3)OC2=O)c1 (centres undefined) , output reported pIC50.
Result: 7.85

* * *

# Target system: Dimer of Gag-Pol polyprotein [489-587] (Human immunodeficiency virus 1)
# Construct: 489-587
# Test details: Protease Inhibition Assay
# Condition description: pH 4.7; 37 °C
I'd appreciate it if you could supply pIC50 values for the items below.
Reminder that pIC50 is minus the log10 of a molar concentration.

Ask: Input CC(C)CCCC1(c2ccccc2)CC(=O)C(SCCc2ccccc2)C(=O)O1 (stereo not drawn) , output reported pIC50.
Result: 6.81

Ask: Input O=C1CC(CCc2ccccc2)(c2ccccc2)OC(=O)C1SCCc1ccccc1 (stereo not drawn) , output reported pIC50.
Result: 7.29

Ask: Input CCCCCCC1(c2ccccc2)CC(=O)C(SCCc2ccccc2)C(=O)O1 (stereo not drawn) , output reported pIC50.
Result: 6.95

Ask: Input CC(C)CCCC1(c2ccccc2)CC(=O)C(SCc2ccccc2)C(=O)O1 (stereo not drawn) , output reported pIC50.
Result: 6.74

Ask: Input CCCCCCC1(c2ccccc2)CC(=O)C(SCc2ccccc2)C(=O)O1 (stereo not drawn) , output reported pIC50.
Result: 6.74

Ask: Input CCCC1(c2ccccc2)CC(=O)C(SCc2ccccc2)C(=O)O1 (stereo not drawn) , output reported pIC50.
Result: 6.54

Ask: Input CCCC1(c2ccccc2)CC(=O)C(SCCc2ccccc2)C(=O)O1 (stereo not drawn) , output reported pIC50.
Result: 5.29

Ask: Input O=C(O)CCCC1(c2ccccc2)CC(=O)C(SCCc2ccccc2)C(=O)O1 (stereo not drawn) , output reported pIC50.
Result: 6.57

* * *

I'd appreciate it if you could supply pIC50 values for the items below.
# Target system: Dimer of Gag-Pol polyprotein [489-587] (Human immunodeficiency virus 1, UniProt P12497)
# Construct: 489-587
# Test details: Protease Inhibition Assay
Reminder that pIC50 is minus the log10 of a molar concentration.

Ask: Input O=C1CC2(CCCc3ccccc32)OC(=O)C1SCCc1ccccc1 (stereo not given) , output reported pIC50.
Result: 5.89

Ask: Input O=C1CC2(CCc3ccccc32)OC(=O)C1SCc1ccccc1 (stereo not given) , output reported pIC50.
Result: 4.93

Ask: Input CC(C)c1ccccc1SC1C(=O)CC(CCc2ccccc2)(c2ccccc2)OC1=O (stereo not given) , output reported pIC50.
Result: 7.85

Ask: Input O=C1CC(CCCCO)(c2ccccc2)OC(=O)C1SCc1ccccc1 (stereo not given) , output reported pIC50.
Result: 5.90

Ask: Input CCC(C)c1ccccc1SC1C(=O)CC(c2ccccc2)(c2ccccc2)OC1=O (stereo not given) , output reported pIC50.
Result: 7.77

Ask: Input CCCCCC1(CCCCC)CC(=O)C(SCc2ccccc2)C(=O)O1 (stereo not given) , output reported pIC50.
Result: 6.49

Ask: Input Cc1ccc(C(C)(C)C)c(SC2C(=O)CC(CCc3ccccc3)(c3ccccc3)OC2=O)c1 (stereo not given) [4-Hydroxy-5,6-dihydropyrone deriv. 49] , output reported pIC50.
Result: 8.00

Ask: Input Cc1ccc(C(C)(C)C)c(SC2C(=O)CC(c3ccccc3)(c3ccccc3)OC2=O)c1 (stereo not given) , output reported pIC50.
Result: 7.92

Ask: Input CN(CC1(c2ccccc2)CC(=O)C(SCCc2ccccc2)C(=O)O1)c1ccccc1 (stereo not given) , output reported pIC50.
Result: 5.64

Ask: Input Cc1ccccc1SC1C(=O)CC(CCc2ccccc2)(c2ccccc2)OC1=O (stereo not given) , output reported pIC50.
Result: 7.14

* * *

# Target system: Dimer of Gag-Pol polyprotein [489-587] (Human immunodeficiency virus 1, UniProt P12497)
# Construct: 489-587
# Test details: Protease Inhibition Assay
Assay metric: IC50 (nM)
The reply should be a number in nM, with the unit left off.

Ask: Input O=C1CC(COc2ccccc2)(c2ccccc2)OC(=O)C1SCc1ccccc1 (stereo not given) , output reported IC50.
Result: 172

Ask: Input CC(C)c1ccccc1SC1C(=O)CC(c2ccccc2)(c2ccccc2)OC1=O (stereo not given) , output reported IC50.
Result: 23

Ask: Input Cc1ccccc1SC1C(=O)CC(c2ccccc2)(c2ccccc2)OC1=O (stereo not given) , output reported IC50.
Result: 388

Ask: Input O=C1CC2(CCCc3ccccc32)OC(=O)C1SCc1ccccc1 (stereo not given) , output reported IC50.
Result: 2300

Ask: Input Cc1ccc(C(C)C)c(SC2C(=O)CC(c3ccccc3)(c3ccccc3)OC2=O)c1 (stereo not given) , output reported IC50.
Result: 38

Ask: Input Cc1ccc(C(C)C)c(SC2C(=O)C[C@@](CCc3ccccc3)(c3ccccc3)OC2=O)c1 (stereo not given in full) , output reported IC50.
Result: 6

Ask: Input CC(C)(C)c1ccccc1SC1C(=O)CC(c2ccccc2)(c2ccccc2)OC1=O (stereo not given) , output reported IC50.
Result: 49

Ask: Input CC(C)c1ccc(C(C)(C)C)c(SC2C(=O)CC(CCc3ccccc3)(c3ccccc3)OC2=O)c1 (stereo not given) , output reported IC50.
Result: 47

Ask: Input Cc1ccc(C(C)C)c(SC2C(=O)C[C@](CCc3ccccc3)(c3ccccc3)OC2=O)c1 (stereo not given in full) , output reported IC50.
Result: 130

Ask: Input O=C1CC(c2ccccc2)(c2ccccc2)OC(=O)C1Sc1ccccc1C1CCCC1 (stereo not given) , output reported IC50.
Result: 14

* * *

I'd appreciate it if you could supply IC50 values for the items below.
# Target system: Dimer of Gag-Pol polyprotein [489-587] (Human immunodeficiency virus 1, UniProt P12497)
# Construct: 489-587
# Test details: Protease Inhibition Assay
# Condition description: pH 4.7; 37 °C
The reply should be a number in nM, with the unit left off.

Ask: Input O=C1CC(CCc2ccccc2)(c2ccccc2)OC(=O)C1SCc1ccccc1 (configuration not stated) , output reported IC50.
Result: 60

Ask: Input O=C1CC(c2ccccc2)(c2ccccc2)OC(=O)C1Sc1ccccc1 (configuration not stated) , output reported IC50.
Result: 110

Ask: Input CCCCCC1(c2ccccc2)CC(=O)C(SCCc2ccccc2)C(=O)O1 (configuration not stated) , output reported IC50.
Result: 84

Ask: Input CC(C)CCC1(c2ccccc2)CC(=O)C(SCCc2ccccc2)C(=O)O1 (configuration not stated) , output reported IC50.
Result: 96

Ask: Input O=C1CC(CC2CCCC2)(c2ccccc2)OC(=O)C1SCc1ccccc1 (configuration not stated) , output reported IC50.
Result: 88

Ask: Input CC(C)CC1(c2ccccc2)CC(=O)C(SCc2ccccc2)C(=O)O1 (configuration not stated) , output reported IC50.
Result: 440

Ask: Input CCCCCC1(c2ccccc2)CC(=O)C(SCc2ccccc2)C(=O)O1 (configuration not stated) , output reported IC50.
Result: 124

Ask: Input CC(C)CCC1(c2ccccc2)CC(=O)C(Sc2ccccc2)C(=O)O1 (configuration not stated) , output reported IC50.
Result: 1400

Ask: Input O=C1CC(CC2CCCC2)(c2ccccc2)OC(=O)C1SCCc1ccccc1 (configuration not stated) , output reported IC50.
Result: 510

Ask: Input CCCCC1(c2ccccc2)CC(=O)C(SCCc2ccccc2)C(=O)O1 (configuration not stated) , output reported IC50.
Result: 400

Ask: Input O=C1CC(c2ccccc2)(c2ccccc2)OC(=O)C1SCCc1ccccc1 (configuration not stated) , output reported IC50.
Result: 152

Ask: Input NC(=O)CCCC1(c2ccccc2)CC(=O)C(SCCc2ccccc2)C(=O)O1 (configuration not stated) , output reported IC50.
Result: 1300

Ask: Input O=C(O)CCC1(c2ccccc2)CC(=O)C(SCCc2ccccc2)C(=O)O1 (configuration not stated) , output reported IC50.
Result: 1200

Ask: Input CC(C)CCC1(c2ccccc2)CC(=O)C(SCc2ccccc2)C(=O)O1 (configuration not stated) , output reported IC50.
Result: 98

Ask: Input O=C1CC(CC2CCCCC2)(c2ccccc2)OC(=O)C1SCc1ccccc1 (configuration not stated) , output reported IC50.
Result: 137

Ask: Input O=C1CC(c2ccccc2)(c2ccccc2)OC(=O)C1SCc1ccccc1 (configuration not stated) , output reported IC50.
Result: 262

Ask: Input CC(C)CC1(c2ccccc2)CC(=O)C(SCCc2ccccc2)C(=O)O1 (configuration not stated) , output reported IC50.
Result: 1200

Ask: Input O=C1CC(CCc2ccccc2)(c2ccccc2)OC(=O)C1Sc1ccccc1 (configuration not stated) , output reported IC50.
Result: 130

Ask: Input O=C1CC(c2ccccc2)OC(=O)C1SCCc1ccccc1 (configuration not stated) , output reported IC50.
Result: 2100

Ask: Input O=C1CC(c2ccccc2)OC(=O)C1SCc1ccccc1 (configuration not stated) , output reported IC50.
Result: 8900

Ask: Input CCCCC1(c2ccccc2)CC(=O)C(SCc2ccccc2)C(=O)O1 (configuration not stated) , output reported IC50.
Result: 270

Ask: Input O=C(O)CCCCC1(c2ccccc2)CC(=O)C(SCCc2ccccc2)C(=O)O1 (configuration not stated) , output reported IC50.
Result: 5
